test_description: chemical genetic growth profiling, strain panel (AID 1159580);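 further: tested at 20 µM; growth read once vehicle control cultures reached saturation at 30 °C; 1 = growth at the plate median or of vehicle wells; lower values mean less growth of the strain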
cond: S. cerevisiae deletion strains, growth OD, locus YPR163C, strain tif3, stronger effect = lower value
The campaign covered roughly 5,500 compounds. About 2,000 (36%) were called active. Inconclusive results (about 18%) are left out. The list shows a part of the results.
Measured normalized growth, listed per entry.
reported_endpoint: normalized growth

>>> observed_measurement("CC(C)=CCc1c2c(c3occ(-c4ccc(O)cc4)c(=O)c3c1O)C=CC(C)(C)O2")
0.979
>>> observed_measurement("CN(C)C1C(=O)C(C(N)=O)=C(O)C2(O)C(=O)C3=C(O)c4c(O)ccc(Cl)c4C(C)(O)C3CC12 (centres undefined)")
0.991
>>> observed_measurement("CC(C)c1ccc2c(c1)CCC1[C@](C)(CN)CCC[C@]21C (some centres undefined)")
0.072
>>> observed_measurement("CC(C)=CCc1c2c(c3occ(-c4ccc(O)c(O)c4)c(=O)c3c1O)C=CC(C)(C)O2")
0.735
>>> observed_measurement("CN(C)C(=O)Oc1cccc([N+](C)(C)C)c1")
0.984
>>> observed_measurement("CC(C)c1ccc2c(c1)CCC1C(C)(C(N)=O)CCCC21C (centres undefined)")
0.966
>>> observed_measurement("COc1ccccc1OCC(O)CO (centres undefined)")
1.01
>>> observed_measurement("CO[C@H]1CC(O[C@@H]2/C(C)=C/C[C@@H]3C[C@@H](C[C@]4(CC[C@H](C)[C@@H](C5CCCCC5)O4)O3)OC(=O)[C@@H]3C=C(C)/C(=N\\O)[C@H]4OC/C(=C\\C=C\\[C@@H]2C)[C@]43O)O[C@@H](C)C1O (some centres undefined)")
0.972
>>> observed_measurement("C=C(C)C1(O)OC(=O)C=C1OC (centres undefined)")
0.99
